Assayed system: 5HTR2B (Homo sapiens, UniProt P41595)
Sequence (P41595 whole entry): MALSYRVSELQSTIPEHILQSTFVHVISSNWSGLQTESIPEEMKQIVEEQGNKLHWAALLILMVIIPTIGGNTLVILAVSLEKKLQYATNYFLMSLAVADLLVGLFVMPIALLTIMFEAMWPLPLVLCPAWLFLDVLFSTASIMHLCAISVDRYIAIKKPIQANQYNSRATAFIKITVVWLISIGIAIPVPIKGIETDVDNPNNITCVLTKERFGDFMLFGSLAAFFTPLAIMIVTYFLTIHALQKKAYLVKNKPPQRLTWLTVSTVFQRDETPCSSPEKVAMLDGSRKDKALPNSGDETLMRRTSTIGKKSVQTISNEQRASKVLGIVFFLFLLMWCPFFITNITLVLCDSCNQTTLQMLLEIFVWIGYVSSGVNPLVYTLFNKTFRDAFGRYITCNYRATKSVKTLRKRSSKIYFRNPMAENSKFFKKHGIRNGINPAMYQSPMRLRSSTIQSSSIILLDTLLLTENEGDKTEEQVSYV
Protocol summary: 5HTR2B antagonist activity, calcium mobilization assay in human Maverick/293 cells (serotonin as agonist)
Run parameters: intracellular calcium, emission 525 nm, read-out: Ca assay IC50
Mark fulfilled only when IC50 stays strictly below 3 nM. Values equal to the cut-off are not fulfilled.

Threshold test, IC50 < 3 nM: COc1ccc(S(=O)(=O)N[C@H]2CCOC2)cc1C(=O)Nc1ccc(F)c(Cl)c1 [Compound 112]
fulfilled

Threshold test, IC50 < 3 nM: COc1ccc(S(=O)(=O)N[C@H]2CCOC2)cc1C(=O)Nc1ccc(Br)cc1 [Compound 125]
not fulfilled

Threshold test, IC50 < 3 nM: COc1ccc(S(=O)(=O)N[C@H]2CCOC2)cc1C(=O)Nc1cccc(F)c1Cl [Compound 3]
fulfilled

====

Below: a set of entries, each annotated with reported IC50.
Assayed system: 5HTR2B (Homo sapiens)
Construct: host or cells: human Maverick/293 cells
Protocol summary: 5HTR2B antagonist activity, calcium mobilization assay in human Maverick/293 cells (serotonin as agonist)
Format: cell-based
Run parameters: intracellular calcium, emission 525 nm, read-out: Ca assay IC50
# unit: nM | format: bare number

Compound: COc1ccc(S(=O)(=O)N[C@H]2C[C@H](O)C2)cc1C(=O)Nc1cccc(C)c1Cl [Compound 140a]
Unit abbreviation: nM
IC50: 3.9

Recorded IC50 for COc1ccc(S(=O)(=O)N2CCCC2)cc1C(=O)Nc1ccc(F)c(C)n1 , please?
24

====

Assayed system: 5HTR2B (Homo sapiens)
Protocol summary: 5HTR2B antagonist activity, calcium mobilization assay in human Maverick/293 cells (serotonin as agonist)
Run parameters: intracellular calcium, emission 525 nm, read-out: Ca assay IC50
Below: a set of entries, each annotated with reported log10(IC50).
Transform log10 | Measure IC50 | Unit nM

Compound: COc1ccc(S(=O)(=O)NC2(CO)COC2)cc1C(=O)Nc1ccc(F)c(C)c1 [Compound 13]
log10(IC50): 1.82

Compound: COc1ccc(S(=O)(=O)N[C@H]2CCOC2)cc1C(=O)Nc1cccc(C(F)(F)F)c1 [Compound 109]
log10(IC50): 2.36

Compound: COc1ccc(NS(=O)(=O)[C@H]2CCOC2)cc1C(=O)Nc1ccc(F)c(C)c1 (single isomer, unassigned) [Compound 202a]
log10(IC50): 0.00

Compound: COc1ccc(S(=O)(=O)N[C@H]2CCOC2)cc1C(=O)Nc1ccccc1Cl [Compound 127]
log10(IC50): -1.00

Compound: COc1ccc(S(=O)(=O)NC2CCC2)cc1C(=O)Nc1ccc(F)cc1 [Compound 47]
log10(IC50): -0.30

Compound: COc1ccc(S(=O)(=O)N[C@H]2CCOC2)cc1C(=O)Nc1cccc(C#N)c1F [Compound 92]
log10(IC50): 2.13

Compound: COc1ccc(S(=O)(=O)N[C@H]2CCOC2)cc1C(=O)Nc1ccc(F)cc1 [Compound 122]
log10(IC50): -0.22

--- query ---
Recorded log10(IC50) for COc1ccc(S(=O)(=O)N[C@H]2C[C@H](O)C2)cc1C(=O)Nc1ccccc1Cl [Compound 154] , please?
-0.22

====

Assayed system: 5HTR2B (Homo sapiens)
Protocol summary: 5HTR2B antagonist activity, calcium mobilization assay in human Maverick/293 cells (serotonin as agonist)
Run parameters: intracellular calcium, emission 525 nm, read-out: Ca assay IC50
Mark fulfilled only when IC50 stays strictly below 2 nM. Values equal to the cut-off are not fulfilled.

Look over these answered cases.
Compound: COc1ccc(S(=O)(=O)N[C@H]2C[C@H](O)C2)cc1C(=O)Nc1c(C)cccc1Cl [Compound 138a]
Group label: not fulfilled
--
Compound: COc1ccc(S(=O)(=O)NC2CC[C@H](O)C2)cc1C(=O)Nc1ccccc1Cl (stereo partly shown) [Compound 57a]
Group label: fulfilled
--
Compound: COc1ccc(S(=O)(=O)NCC(O)C(F)(F)F)cc1C(=O)Nc1ccc(F)c(C)n1 (single isomer, unassigned) [Compound 23a]
Group label: not fulfilled

Threshold test, IC50 < 2 nM: COc1ccc(S(=O)(=O)N[C@H]2CCOC2)cc1C(=O)Nc1c(F)cccc1OC
not fulfilled

Threshold test, IC50 < 2 nM: COc1ccc(S(=O)(=O)N[C@H]2CCOC2)cc1C(=O)Nc1ccn(C)n1
not fulfilled

Threshold test, IC50 < 2 nM: COc1ccc(S(=O)(=O)NCC(O)C(F)(F)F)cc1C(=O)Nc1ccc(F)c(C)n1 (single isomer, unassigned) [Compound 23b]
not fulfilled

====

Assayed system: 5HTR2B (Homo sapiens, UniProt P41595)
Protocol summary: 5HTR2B antagonist activity, calcium mobilization assay in human Maverick/293 cells (serotonin as agonist)
Run parameters: intracellular calcium, emission 525 nm, read-out: Ca assay IC50
Below: a set of entries, each annotated with reported IC50.
# unit: nM | format: bare number

Solved entries (count: 2):
Compound: COc1ccc(S(=O)(=O)N[C@H]2CCOC2)cc1C(=O)Nc1cccc(Br)c1
IC50 [nM]: 6.3
//
Compound: COc1ccc(S(=O)(=O)NC2CCC2)cc1C(=O)Nc1ccc(F)c(C)c1
IC50 [nM]: 1.3

Recorded IC50 for COc1ccc(S(=O)(=O)NC2(C)COC2)cc1C(=O)Nc1ccc(F)c(C)c1 , please?
2.2

Recorded IC50 for COc1ccc(S(=O)(=O)N[C@H]2CCOC2)cc1C(=O)Nc1cc(F)c(F)c(F)c1 , please?
186

====

Below: a set of entries, each annotated with reported IC50.
Assayed system: UniProtKB P41595
Protocol summary: 5HTR2B antagonist activity, calcium mobilization assay in human Maverick/293 cells (serotonin as agonist)
Run parameters: intracellular calcium, emission 525 nm, read-out: Ca assay IC50
# unit: nM | format: bare number

Molecule: COc1ccc(S(=O)(=O)N[C@H]2CCOC2)cc1C(=O)Nc1c(F)cc(Cl)cc1F
IC50 [nM]: 92
//
Molecule: COc1ccc(S(=O)(=O)NC2CCCCC2)cc1C(=O)Nc1ccc(F)c(C)n1
IC50 [nM]: 4.4
//
Molecule: COc1ccc(S(=O)(=O)N[C@H]2CCOC2)cc1C(=O)Nc1nc(C)cs1
IC50 [nM]: 1.1
//
Molecule: COc1ccc(S(=O)(=O)N[C@H]2C[C@@H](O)C2)cc1C(=O)Nc1ccc(F)c(C(F)F)n1 [Compound 174b]
IC50 [nM]: 1.7
//
Molecule: COc1ccc(S(=O)(=O)N[C@H]2CCOC2)cc1C(=O)Nc1nc(C)c(F)c(Cl)n1
IC50 [nM]: 106
//
Molecule: COc1ccc(S(=O)(=O)NC2CNC2)cc1C(=O)Nc1ccc(F)c(C)n1
IC50 [nM]: 65

Recorded IC50 for COc1ccc(NS(=O)(=O)[C@@H]2CCOC2)cc1C(=O)Nc1ccc(F)c(C)c1 (single isomer, unassigned) [Compound 202b] , please?
2.8

Recorded IC50 for COc1ccc(S(=O)(=O)N[C@H](C)CC#N)cc1C(=O)Nc1ccccc1Cl (single isomer, unassigned) [Compound 60b] , please?
0.4

Recorded IC50 for COc1ccc(S(=O)(=O)N[C@H]2CCOC2)cc1C(=O)Nc1cc(F)cc(C#N)c1 , please?
29

Recorded IC50 for COc1ccc(S(=O)(=O)NC2CC(C)C2)cc1C(=O)Nc1ccc(F)c(C)c1 (stereo not shown) , please?
5.4

Recorded IC50 for COc1ccc(S(=O)(=O)N[C@H]2C[C@@H](O)C2)cc1C(=O)Nc1ccc(F)cc1Cl [Compound 144b] , please?
0.3

Recorded IC50 for COc1ccc(S(=O)(=O)N[C@@H](C)CO)cc1C(=O)Nc1ccc(F)cc1 [Compound 49a] , please?
3.4

====

Assayed system: 5HTR2B (Homo sapiens, UniProt P41595)
Protocol summary: 5HTR2B antagonist activity, calcium mobilization assay in human Maverick/293 cells (serotonin as agonist)
Run parameters: intracellular calcium, emission 525 nm, read-out: Ca assay IC50
Below: a set of entries, each annotated with reported log10(IC50).
Transform log10 | Measure IC50 | Unit nM

Molecule: COc1ccc(S(=O)(=O)N[C@H]2CCOC2)cc1C(=O)Nc1ncc(F)cc1C
log10(IC50): 2.21
--
Molecule: COc1ccc(S(=O)(=O)N[C@H]2CCOC2)cc1C(=O)Nc1cc(Cl)c(F)cc1F
log10(IC50): 0.96
--
Molecule: COc1ccc(S(=O)(=O)N[C@H]2C[C@@H](O)C2)cc1C(=O)Nc1ccc(F)c(C)c1
log10(IC50): 0.28
--
Molecule: COc1ccc(S(=O)(=O)N[C@H]2C[C@@H](C)C2)cc1C(=O)Nc1ccc(F)c(C)c1
log10(IC50): 0.58
--
Molecule: COc1ccc(S(=O)(=O)NC2(C(F)(F)F)CC2)cc1C(=O)Nc1ccc(F)cc1
log10(IC50): 0.88

--- query ---
Recorded log10(IC50) for COc1ccc(S(=O)(=O)N[C@H](C)C(N)=O)cc1C(=O)Nc1ccc(F)cc1 [Compound 46a] , please?
0.18

Reference source for all entries: patent US10654837B2
